TGT: receptor-binding domain (RBD) of the SARS-COV-2 spike (S) protein (SARS-COV-2, UniProt P0DTC2 319-541)
PROTOCOL SUMMARY: SPR equilibrium
What pKd was measured for each of the following?
Answer as the number alone; pKd is minus log10 of concentration in mol/L.

[Q] Supply reported pKd belonging to this binder: RBD7i13 (VHH) VHH: QVQLQESGGGLVQAGGSLRLSCAASGYISGAYYMGWYRQAPGKERKFVAGIGGGSTNYADSVKGRFTISRDNAKNTVYLQMNSLKPEDTAVYYCAVYQSVAYYCRGYFSYWGQGTQVTVSS
[A] 6.18

[Q] Return pKd (reported value) for this binder: RBD6i13 (VHH) VHH: QVQLQESGGGLVQAGGSLRLNCAASGSISTTYLMGWYRQAPGKERKFVATINRGGSTYYAVSVKGRFTISRDNAKNTVYLQMNSLKPEDTAVYYCAVGWPDPGYGLAYHRYWGQGTQVTVNS
[A] 6.25

[Q] For the binder RBD7i12 (VHH) VHH: QVQLQESGGGLVQAGGSLRLSCAASGYISGAYYMGWYRQAPGKEREFVAGIGGGSTNYADSVKGRFTISRDNAKNTVYLQMNSLKPEDTAVYYCAVYQSVAYYCRGYFSYWGQGTQVTVSS , report pKd.
[A] 5.59

[Q] Let me know recorded pKd for RBD7 (VHH) VHH: QVQLQESGGGLVQAGGSLRLSCAASGYISGAYYMGWYRQAPGKEREFVAGIGGGSTNYADSVKGRFTISRDNAKNTVYLQMNSLKPEDTAVYYCAVYQSVAYYYRGYFSYWGQGTQVTVSS , thanks.
[A] 5.66
